Entry source: ChEMBL document CHEMBL2375301

biological target: Epidermal growth factor receptor (Homo sapiens); settings: at 10 µM
Description: Inhibition of EGFR (unknown origin) at 10 uM relative to control
inhibition vs 30%: at or above is Y, below is N.

Would you please look over these solved cases?
Record "COc1cc2c(Nc3nc4ccc(C(=O)Nc5c(C)cc(C)cc5C)cc4s3)ncnc2cc1OCCCN1CCC(C)CC1" ; criterion: inhibition no lower than 30%. Met?
Y

Record "CCN(CC)CCCOc1cc2ncnc(Nc3nc4ccc(C(=O)Nc5c(C)cccc5Cl)cc4s3)c2cc1OC" ; criterion: inhibition no lower than 30%. Met?
Y

Record "COc1cc2c(Nc3nc4ccc(C(=O)Nc5c(C)cccc5C)cc4s3)ncnc2cc1OCCCN1CCCC1" ; criterion: inhibition no lower than 30%. Met?
N

Others:
Record COc1cc2c(Nc3nc4ccc(C(=O)Nc5c(C)cc(C)cc5C)cc4s3)ncnc2cc1OCCCN1CCCCC1C (stereo not drawn) ; criterion: inhibition no lower than 30%. Met?
Y

Record "COc1cc2c(Nc3nc4ccc(C(=O)Nc5c(C)cccc5C)cc4s3)ncnc2cc1OCCCN1CCOCC1" ; criterion: inhibition no lower than 30%. Met?
N

Record "COc1cc2c(Nc3nc4ccc(C(=O)Nc5c(C)cccc5Cl)cc4s3)ncnc2cc1OCCCN1CCCCC1" ; criterion: inhibition no lower than 30%. Met?
N

Record "CCN(CC)CCCOc1cc2ncnc(Nc3nc4ccc(C(=O)Nc5c(C)cccc5C)cc4s3)c2cc1OC" ; criterion: inhibition no lower than 30%. Met?
N

Record "COc1cc2c(Nc3nc4ccc(C(=O)Nc5c(C)cc(C)cc5C)cc4s3)ncnc2cc1OCCCN1CCCCC1" ; criterion: inhibition no lower than 30%. Met?
Y
